target: UniProt O00329
Sequence (O00329 whole entry, species assumed): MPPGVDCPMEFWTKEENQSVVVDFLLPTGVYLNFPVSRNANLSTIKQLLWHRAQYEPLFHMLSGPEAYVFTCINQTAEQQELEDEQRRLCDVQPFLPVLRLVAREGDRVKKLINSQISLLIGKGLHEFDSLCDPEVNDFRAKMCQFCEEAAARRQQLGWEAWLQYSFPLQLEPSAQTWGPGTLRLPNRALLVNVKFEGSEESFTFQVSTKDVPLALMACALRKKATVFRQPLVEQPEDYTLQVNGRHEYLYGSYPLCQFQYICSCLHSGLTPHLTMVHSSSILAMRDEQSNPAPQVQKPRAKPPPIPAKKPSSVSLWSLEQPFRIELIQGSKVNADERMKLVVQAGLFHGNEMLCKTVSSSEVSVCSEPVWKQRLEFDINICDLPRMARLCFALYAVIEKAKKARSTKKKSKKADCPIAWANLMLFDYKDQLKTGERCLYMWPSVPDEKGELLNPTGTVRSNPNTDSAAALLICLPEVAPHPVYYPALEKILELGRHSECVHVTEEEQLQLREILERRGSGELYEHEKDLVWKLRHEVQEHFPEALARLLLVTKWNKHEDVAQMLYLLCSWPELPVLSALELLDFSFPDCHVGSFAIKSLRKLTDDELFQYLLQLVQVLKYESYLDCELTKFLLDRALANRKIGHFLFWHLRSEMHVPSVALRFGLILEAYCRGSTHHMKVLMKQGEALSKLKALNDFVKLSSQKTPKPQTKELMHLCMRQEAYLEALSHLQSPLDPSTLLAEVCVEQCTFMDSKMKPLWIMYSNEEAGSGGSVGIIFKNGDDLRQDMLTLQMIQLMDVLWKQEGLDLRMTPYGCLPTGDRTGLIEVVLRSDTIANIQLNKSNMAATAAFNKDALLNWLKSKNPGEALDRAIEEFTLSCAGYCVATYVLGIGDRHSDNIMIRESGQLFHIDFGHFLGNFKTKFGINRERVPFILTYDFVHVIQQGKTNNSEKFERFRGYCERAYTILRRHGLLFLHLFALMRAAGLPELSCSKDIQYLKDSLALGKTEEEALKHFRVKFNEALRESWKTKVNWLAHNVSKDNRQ
Sequence (P27986 whole entry partner, species assumed): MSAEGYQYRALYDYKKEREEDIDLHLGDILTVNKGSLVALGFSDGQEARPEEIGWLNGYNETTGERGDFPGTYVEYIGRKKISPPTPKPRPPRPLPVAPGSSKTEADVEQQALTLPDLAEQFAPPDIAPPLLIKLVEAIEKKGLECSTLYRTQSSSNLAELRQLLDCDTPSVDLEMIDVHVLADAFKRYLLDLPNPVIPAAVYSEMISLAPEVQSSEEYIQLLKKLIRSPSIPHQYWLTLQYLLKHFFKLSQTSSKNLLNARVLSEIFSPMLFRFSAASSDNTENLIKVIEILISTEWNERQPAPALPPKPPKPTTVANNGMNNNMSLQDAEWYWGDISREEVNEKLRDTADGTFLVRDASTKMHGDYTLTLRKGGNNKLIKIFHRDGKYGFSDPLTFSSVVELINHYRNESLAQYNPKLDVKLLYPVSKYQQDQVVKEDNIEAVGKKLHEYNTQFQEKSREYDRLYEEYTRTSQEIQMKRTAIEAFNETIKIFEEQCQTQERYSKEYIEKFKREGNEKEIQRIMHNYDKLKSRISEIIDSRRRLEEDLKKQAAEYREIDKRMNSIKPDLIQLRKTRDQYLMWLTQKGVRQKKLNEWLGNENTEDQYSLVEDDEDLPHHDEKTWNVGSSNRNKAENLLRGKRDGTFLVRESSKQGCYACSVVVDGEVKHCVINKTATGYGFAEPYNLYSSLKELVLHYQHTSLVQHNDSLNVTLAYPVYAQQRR
pIC50: −log10 of the molar value.
Outcome measure: pIC50

Below, each entry is followed by its recorded pIC50 result.
{"Compound": "COc1ncc(-c2nc(N3CCOCC3)nc3c(CN4CCC(N5CCCCC5)CC4)cccc23)cc1NS(C)(=O)=O [Compound 3]", "Test system": "UniProt O00329", "Measurement": 7.51}
{"Compound": "COc1ncc(-c2nc(N3CCOCC3)c3nc(OC4CN(C5CCCCC5)C4)n(C)c3n2)cc1NS(C)(=O)=O [Compound 19]", "Test system": "UniProt O00329", "Measurement": 8.30}

A: COc1ncc(-c2nc(N3CCOCC3)nc3c(CN4CCC(N5CCCC5)CC4)cc(F)cc23)cc1NS(C)(=O)=O [Compound 8]
B: COc1ncc(-c2nc(N3CCOCC3)nc3c(OC4CCC(N5CCCCC5)CC4)cc(F)cc23)cc1NS(C)(=O)=O (stereo not shown) [Compound 35]
Kindly compare A with B and tell me which has the lower pIC50 figure. Indicate your choice by writing its label. B

====

target: UniProt:P42336; experiment: PI3Kα enzymatic inhibitory activity IC50 assay; format: biochemical; conditions: selectivity ratio
Outcome measure: α/δ (ratio of IC50 values against PI3Kα to PI3Kδ)

{"Compound": "Nc1ncc(-c2nc(N3CCOCC3)nc3c(CN4CCN(C(=O)CO)CC4)cc(F)cc23)cn1 [Compound 22]", "Test system": "UniProt:P42336", "Measurement": 2}
{"Compound": "COc1ncc(-c2nc(N3CCOCC3)nc3c(OCC4CCOCC4)cc(F)cc23)cc1NS(C)(=O)=O [Compound 31]", "Test system": "UniProt:P42336", "Measurement": 24}
{"Compound": "COc1ncc(-c2nc(N3CCOCC3)nc3c(OCCN4CCCCC4)cc(F)cc23)cc1NS(C)(=O)=O [Compound 33]", "Test system": "UniProt:P42336", "Measurement": 113}
{"Compound": "COc1ncc(-c2nc(N3CCOCC3)nc3c(CN4CCC(N5CCCCC5=O)CC4)cc(F)cc23)cc1NS(C)(=O)=O [Compound 23]", "Test system": "UniProt:P42336", "Measurement": 79}
{"Compound": "COc1ncc(-c2nc(N3CCOCC3)c3nc(OC4CCOCC4)n(C)c3n2)cc1NS(C)(=O)=O [Compound 20]", "Test system": "UniProt:P42336", "Measurement": 15}
{"Compound": "CS(=O)(=O)N1CCN(Cc2cnn3c(-c4cccc5[nH]ncc45)cc(N4CCOCC4)nc23)CC1 [Compound 11]", "Test system": "UniProt:P42336", "Measurement": 2.3}

P: COc1ncc(-c2nc(N3CCOCC3)nc3c(OC4CCC(N5CCCCC5)CC4)cc(F)cc23)cc1NS(C)(=O)=O (stereo not drawn) [Compound 34]
Q: C[C@@H](O)C(=O)N1CCN(Cc2cccc3c(-c4cnc(N)nc4)nc(N4CCOCC4)nc23)CC1 [Compound 4]
Of P and Q , whose reported α/δ (ratio of IC50 values against PI3Kα to PI3Kδ) is the larger number? Indicate your choice by writing its label. P
(P: 202, Q: 2)

====

target: PI3Kα (Homo sapiens (Human), UniProt P42336); assay: PI3Kα enzymatic inhibitory activity IC50 assay; assay type: biochemical; settings: selectivity ratio
Sequence (P42336 whole entry, species assumed, one chain of several): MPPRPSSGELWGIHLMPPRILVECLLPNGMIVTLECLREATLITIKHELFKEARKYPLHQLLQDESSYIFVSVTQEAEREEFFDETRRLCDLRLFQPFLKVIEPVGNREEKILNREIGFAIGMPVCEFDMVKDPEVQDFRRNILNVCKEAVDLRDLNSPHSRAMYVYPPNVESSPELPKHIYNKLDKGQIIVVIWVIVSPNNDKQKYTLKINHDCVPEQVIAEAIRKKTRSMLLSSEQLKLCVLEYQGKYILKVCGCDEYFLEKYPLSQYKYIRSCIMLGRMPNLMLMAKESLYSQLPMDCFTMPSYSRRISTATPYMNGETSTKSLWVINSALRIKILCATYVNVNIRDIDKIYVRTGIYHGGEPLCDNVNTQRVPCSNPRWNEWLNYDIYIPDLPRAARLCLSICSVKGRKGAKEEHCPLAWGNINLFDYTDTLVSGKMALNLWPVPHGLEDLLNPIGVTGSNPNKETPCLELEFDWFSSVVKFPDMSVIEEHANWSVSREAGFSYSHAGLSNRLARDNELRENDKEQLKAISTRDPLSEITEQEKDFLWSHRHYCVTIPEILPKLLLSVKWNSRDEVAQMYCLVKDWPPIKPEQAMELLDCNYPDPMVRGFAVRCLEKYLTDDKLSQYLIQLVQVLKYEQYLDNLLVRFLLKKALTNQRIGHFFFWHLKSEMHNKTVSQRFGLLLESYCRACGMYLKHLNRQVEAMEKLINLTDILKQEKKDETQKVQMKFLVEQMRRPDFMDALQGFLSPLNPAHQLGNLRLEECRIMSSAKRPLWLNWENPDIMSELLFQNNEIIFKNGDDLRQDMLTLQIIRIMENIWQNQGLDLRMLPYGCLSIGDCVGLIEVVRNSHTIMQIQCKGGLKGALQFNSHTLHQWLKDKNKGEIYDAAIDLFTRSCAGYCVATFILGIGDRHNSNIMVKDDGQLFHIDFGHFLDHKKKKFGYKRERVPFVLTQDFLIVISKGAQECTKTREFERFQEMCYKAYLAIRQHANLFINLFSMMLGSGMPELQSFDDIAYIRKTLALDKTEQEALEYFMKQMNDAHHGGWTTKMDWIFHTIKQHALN
Outcome measure: α/δ (ratio of IC50 values against PI3Kα to PI3Kδ)

{"Compound": "COc1ncc(-c2nc(N3CCOCC3)nc3c(CN4CCC(N5CCCCC5)CC4)cccc23)cc1NS(C)(=O)=O [Compound 3]", "Measurement": 119}

A: COc1ncc(-c2nc(N3CCOCC3)nc3c(OC4CN(C(=O)C(C)C)C4)cc(F)cc23)cc1NS(C)(=O)=O [Compound 39]
B: COc1ncc(-c2nc(N3CCOCC3)nc3c(CN4CCN(C)C(=O)C4)cc(F)cc23)cc1NS(C)(=O)=O [Compound 29]
Of A and B , whose reported α/δ (ratio of IC50 values against PI3Kα to PI3Kδ) is the larger number? Indicate your choice by writing its label. A
(A: 58, B: 22)

Where do the numbers come from? From patent US9656996B2.
